measured target: Kdn(a2-3)Gal(b1-4)[Fuc(a1-3)]GlcNAc
experiment description: glycan array binding signal (z-score within array); higher = stronger binding
experimental setup: glycan notation: IUPAC condensed, linker removed
The full list was thinned out, with the strongest signals kept by preference.
attribute measured: glycan array binding signal (z-score)
# respond with the number and nothing more

Field: example entries. Status: answers known.
binder: CM2 (Cordyceps militaris) (protein) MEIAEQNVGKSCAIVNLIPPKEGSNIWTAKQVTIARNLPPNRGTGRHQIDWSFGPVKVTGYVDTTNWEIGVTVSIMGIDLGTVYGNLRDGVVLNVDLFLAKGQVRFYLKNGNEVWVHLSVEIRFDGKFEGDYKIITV
glycan array binding signal (z-score): 0.801
//
binder: CFEM-SCL (Saccharomyces cerevisiae), O13547 (protein) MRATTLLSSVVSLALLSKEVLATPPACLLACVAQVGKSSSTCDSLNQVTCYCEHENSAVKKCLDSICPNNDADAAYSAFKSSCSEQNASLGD
glycan array binding signal (z-score): -0.086
//
binder: CFEM-PPm (Pichia pastoris), F2QPV1 (protein) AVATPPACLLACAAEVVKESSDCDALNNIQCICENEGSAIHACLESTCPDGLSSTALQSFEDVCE
glycan array binding signal (z-score): 0.034
//
binder: EULS2 M3 (Oryza sativa) (protein) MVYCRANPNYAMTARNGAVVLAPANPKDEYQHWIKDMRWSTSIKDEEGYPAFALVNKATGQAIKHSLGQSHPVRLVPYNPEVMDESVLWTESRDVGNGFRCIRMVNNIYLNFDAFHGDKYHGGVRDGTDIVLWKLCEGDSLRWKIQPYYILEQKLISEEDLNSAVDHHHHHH
glycan array binding signal (z-score): 0.28

Now let's try a different one.
So for SP8524D-bot-399-27-399 (Bacteroides ovatus) (protein) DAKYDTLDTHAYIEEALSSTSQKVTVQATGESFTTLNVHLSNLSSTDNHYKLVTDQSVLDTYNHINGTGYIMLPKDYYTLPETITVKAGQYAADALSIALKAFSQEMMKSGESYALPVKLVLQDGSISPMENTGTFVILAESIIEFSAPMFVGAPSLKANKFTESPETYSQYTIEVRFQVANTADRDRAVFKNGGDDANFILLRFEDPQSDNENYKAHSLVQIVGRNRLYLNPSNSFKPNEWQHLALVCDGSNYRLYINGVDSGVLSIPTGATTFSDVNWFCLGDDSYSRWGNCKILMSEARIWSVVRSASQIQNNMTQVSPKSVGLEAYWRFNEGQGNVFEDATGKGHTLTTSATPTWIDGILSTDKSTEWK , the logged glycan array binding signal (z-score) turned out to be 0.119
